target: D(2) dopamine receptor (Homo sapiens) (UniProt P14416); experiment: Negative allosteric modulation of human D2LR expressed in Flp-In-CHO cells assessed as inhibition of dopamine-indued ERK1/2 phosphorylation preincubated for 30 mins followed by dopamine addition and measured after 5 mins by AlphaScreen assay; type: cell-based
Sequence (P14416 whole entry): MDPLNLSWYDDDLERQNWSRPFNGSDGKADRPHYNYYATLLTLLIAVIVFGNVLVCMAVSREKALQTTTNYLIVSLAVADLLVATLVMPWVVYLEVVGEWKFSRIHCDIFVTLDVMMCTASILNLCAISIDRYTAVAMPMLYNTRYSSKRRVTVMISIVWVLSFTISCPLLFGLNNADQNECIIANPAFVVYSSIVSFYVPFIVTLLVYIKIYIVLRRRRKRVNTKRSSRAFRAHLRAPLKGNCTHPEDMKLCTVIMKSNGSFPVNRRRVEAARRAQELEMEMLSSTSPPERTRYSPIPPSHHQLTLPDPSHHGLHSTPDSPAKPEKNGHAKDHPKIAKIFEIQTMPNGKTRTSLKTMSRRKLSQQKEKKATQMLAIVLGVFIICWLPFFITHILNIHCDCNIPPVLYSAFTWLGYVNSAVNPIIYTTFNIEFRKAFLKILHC
REPORTED_METRIC: pKb

> print(dat)
                                 smiles.code  reported.metric  endpoint.result
 1  COc1cccc2cc(C(=O)N[C@H]3CC[C@H](CCN4CCc5ccc(C#N)cc5C4)CC3)[nH]c12              pKb             7.29
 2  COc1ccc2[nH]c(C(=O)N[C@H]3CC[C@H](CCN4CCc5ccc(C#N)cc5C4)CC3)cc2c1              pKb              8.7
 3  COc1ccc2cc(C(=O)N[C@H]3CC[C@H](CCN4CCc5ccc(C#N)cc5C4)CC3)[nH]c2c1              pKb              7.6
 4  N#Cc1ccc2c(c1)CN(CC[C@H]1CC[C@H](NC(=O)c3c[nH]c4ncccc34)CC1)CC2              pKb             7.47
 5  N#Cc1ccc2c(c1)CN(CC[C@H]1CC[C@H](NC(=O)c3cc4ccccn4n3)CC1)CC2              pKb             6.78
 6  COc1cccc2[nH]c(C(=O)N[C@H]3CC[C@H](CCN4CCc5ccc(C#N)cc5C4)CC3)cc12              pKb             6.21
 7  N#Cc1ccc2c(c1)CN(CC[C@H]1CC[C@H](NC(=O)c3c[nH]c4ccncc34)CC1)CC2              pKb             8.46
 8  N#Cc1ccc2c(c1)CN(CC[C@H]1CC[C@H](NC(=O)c3cnc4ccccn34)CC1)CC2              pKb             7.62
 9  N#Cc1ccc2c(c1)CN(CC[C@H]1CC[C@H](NC(=O)c3cc4ccncc4[nH]3)CC1)CC2              pKb             8.57
10  N#Cc1ccc2c(c1)CN(CC[C@H]1CC[C@H](NC(=O)c3cc4cc(F)ccc4[nH]3)CC1)CC2              pKb             8.17
11  N#Cc1ccc2c(c1)CN(CC[C@H]1CC[C@H](NC(=O)c3cc4cccnc4[nH]3)CC1)CC2              pKb             7.63
12  N#Cc1ccc2c(c1)CN(CC[C@H]1CC[C@H](NC(=O)c3cc4cccc(F)c4[nH]3)CC1)CC2              pKb             8.35

----------
target: UniProt P14416; assay: Negative allosteric modulation of human D2LR expressed in Flp-In-CHO cells assessed as inhibition of dopamine-indued ERK1/2 phosphorylation preincubated for 30 mins followed by dopamine addition and measured after 5 mins by AlphaScreen assay; format: cell-based
REPORTED_METRIC: Kb (nM)

Record excerpt, results attached:
> print(dat)
                                smiles.code  measurement.target  endpoint.result
1  N#Cc1ccc2c(c1)CN(CC[C@H]1CC[C@H](NC(=O)c3c[nH]c4ccncc34)CC1)CC2      UniProt P14416              3.5
2  COc1ccc2[nH]c(C(=O)N[C@H]3CC[C@H](CCN4CCc5ccc(C#N)cc5C4)CC3)cc2c1      UniProt P14416                2
3  COc1cccc2[nH]c(C(=O)N[C@H]3CC[C@H](CCN4CCc5ccc(C#N)cc5C4)CC3)cc12      UniProt P14416              617
4  N#Cc1ccc2c(c1)CN(CC[C@H]1CC[C@H](NC(=O)c3cc4ccncc4[nH]3)CC1)CC2      UniProt P14416              2.7

[A] N#Cc1ccc2c(c1)CN(CC[C@H]1CC[C@H](NC(=O)c3c[nH]c4cccnc34)CC1)CC2
[B] N#Cc1ccc2c(c1)CN(CC[C@H]1CC[C@H](NC(=O)c3cc4ccc(F)cc4[nH]3)CC1)CC2
Pick one: A or B . Which one has the lower reported Kb? Selection: enter the item's label.
A
